Recorded values, source ChEMBL document CHEMBL5034051.

Target: Epidermal growth factor receptor (Homo sapiens, UniProt P00533, T790M)
Sequence (P00533 25-1210 T790M limits assumed): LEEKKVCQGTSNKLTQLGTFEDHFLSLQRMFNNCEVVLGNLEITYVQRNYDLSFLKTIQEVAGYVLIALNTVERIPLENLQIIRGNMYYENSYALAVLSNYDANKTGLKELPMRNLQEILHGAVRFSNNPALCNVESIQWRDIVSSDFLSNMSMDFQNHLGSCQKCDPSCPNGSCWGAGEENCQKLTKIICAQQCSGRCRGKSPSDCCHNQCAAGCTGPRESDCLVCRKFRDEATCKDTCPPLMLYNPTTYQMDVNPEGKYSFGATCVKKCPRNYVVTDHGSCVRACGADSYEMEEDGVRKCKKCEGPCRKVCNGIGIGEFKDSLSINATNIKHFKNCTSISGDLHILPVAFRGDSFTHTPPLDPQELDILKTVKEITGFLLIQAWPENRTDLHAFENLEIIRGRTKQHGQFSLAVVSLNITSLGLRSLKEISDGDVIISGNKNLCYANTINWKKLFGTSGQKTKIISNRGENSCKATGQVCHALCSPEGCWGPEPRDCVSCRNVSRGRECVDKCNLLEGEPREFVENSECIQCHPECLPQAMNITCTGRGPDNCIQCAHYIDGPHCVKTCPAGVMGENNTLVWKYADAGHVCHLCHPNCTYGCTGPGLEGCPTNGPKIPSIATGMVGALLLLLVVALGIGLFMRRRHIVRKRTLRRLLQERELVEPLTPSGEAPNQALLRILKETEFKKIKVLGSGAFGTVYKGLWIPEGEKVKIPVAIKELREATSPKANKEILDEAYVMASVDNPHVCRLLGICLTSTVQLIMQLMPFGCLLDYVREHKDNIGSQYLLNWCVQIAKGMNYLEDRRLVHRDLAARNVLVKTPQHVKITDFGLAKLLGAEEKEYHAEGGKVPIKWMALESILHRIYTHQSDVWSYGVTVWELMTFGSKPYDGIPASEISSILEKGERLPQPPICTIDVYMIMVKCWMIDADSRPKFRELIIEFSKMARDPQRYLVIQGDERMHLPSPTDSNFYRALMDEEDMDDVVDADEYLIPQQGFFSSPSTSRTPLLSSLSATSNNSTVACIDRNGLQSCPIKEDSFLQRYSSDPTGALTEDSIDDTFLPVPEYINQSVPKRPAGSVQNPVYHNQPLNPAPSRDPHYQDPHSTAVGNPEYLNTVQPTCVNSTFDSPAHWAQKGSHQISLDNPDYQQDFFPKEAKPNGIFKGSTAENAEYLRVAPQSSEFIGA
Assay: Inhibition of EGFR T790M mutant (unknown origin) using Poly (Glu, Tyr)4:1 as substrate by spectrophotometry
ASSAY READOUT: IC50 (nM)

A. C#CCN1CCN(c2ccc(Nc3ncc4c(C)cc(=O)n(-c5cccc(NC(=O)C=C)c5)c4n3)c(OC)c2)CC1
B. C=CC(=O)Nc1cccc(-n2c(=O)cc(C)c3cnc(Nc4ccc(N5CCN(C)CC5)cc4OC)nc32)c1
Endpoint returns the identifier whose IC50 is numerically larger, either A or B . I would appreciate it if you answered with the label of your choice.
A
